# System: FOXC2-expressing HMLER cells
# assay_notes: Cell Titer Glo viability of FOXC2-HMLER cells (high throughput screen and 10-point response)
# Type: cell-based
# condition: Homo sapiens; scored relative to parent compound 3; 72 hours; read-out: Activity Score, inhibition of FOXC2-expressing HMLER cells by Formula III compounds
pIC50: −log10 of the molar value.
recorded_endpoint: pIC50

{"compound": "Cc1ccc(CN2CCC(CNC(=O)c3cccc(-n4nnc5cccnc54)c3C)CC2)cc1 [Compound 3CA]", "pIC50": "< 4.70"}

Look up and report measured pIC50 for this entry: Cc1ccc(NC(=O)c2ccc(-n3nnc4cccnc43)c(C)c2)cc1C [Compound 3AR]
< 4.70

Quick one: give measured pIC50 for Cc1cccc(N2CCN(C(=O)c3ccc(-n4nnc5cccnc54)cc3)CC2C)c1 (stereo not shown) [Compound 3I]
4.70 to 6.00

Using the record for Cc1c(C(=O)N2CCN(C3CCCCC3)CC2)cccc1-n1nnc2cccnc21 [Compound 3BP] , state its measured pIC50.
< 4.70

* * *

# System: control HMLER cells
# assay_notes: Cell Titer Glo viability of control HMLER cells
# Format: cell-based
# condition: Homo sapiens; 72-hour incubation; read-out: HMLER IC50
# Description: An engineered cancer cell line HMLER as an isogenic screening system was employed to identify compounds that are selectively toxic to the FOXC2 positive genotype. […] More specifically, in the high throughput screening assay above, each cell line was plated at 1,000 cells per well in 384-well plates, treated for 72 hours with 2 μM of test compound, and the viability of each line was determined in parallel by Cell Titer Glo (Promega) luminance measurements. […]
recorded_endpoint: IC50

Give control HMLER cells IC50 for the following compound: Clc1cccc(N2CCN(c3cnnc4c(Cl)cccc34)CC2)c1
> 20 µM

* * *

# System: STS cell lines (HT 1080, SW684, RD, GCT, SW872, SW982)
# assay_notes: Anti-proliferative activity against soft tissue sarcoma cell line panel
# Assay type: cell-based
# condition: panel of 6 STS cell lines; read-out: IC50 values, growth of all STS cell lines
# Method: The propagation conditions and generation of FOXC2-HMLER, HMLER, SNAIL-HMLER, SNAIL-HMLE, and SUM159 cells have been described previously (Mani (2008)). […] For high throughput screening, FOXC2-HMLER and HMLER cells were plated at 10^3 cells per well in white 384-well plates in 50 μL of MEGM medium (Lonza). […] After 72-hour incubation, 30 μL of a Cell Titer Glo solution (diluted 1:6 in water, Promega) was dispensed into each well and luminance values were recorded using an Envision plate reader. […]
pIC50: −log10 of the molar value.
recorded_endpoint: pIC50

Please report the measured pIC50 for Clc1cccc(N2CCN(c3cnnc4c(Cl)cccc34)CC2)c1 tested on STS cell lines (HT 1080, SW684, RD, GCT, SW872, SW982).
5.88 to 6.36

* * *

# System: FOXC2-expressing HMLER cells
# assay_notes: Cell Titer Glo viability of FOXC2-HMLER cells (high throughput screen and 10-point response)
# Format: cell-based
# condition: Homo sapiens; scored relative to parent compound 3; 72 hours; read-out: Activity Score, inhibition of FOXC2-expressing HMLER cells by Formula III compounds
pIC50: −log10 of the molar value.
recorded_endpoint: pIC50

{"input_smiles": "Cc1ccc(CNC(=O)c2ccc(C)c(-n3nnc4cccnc43)c2)cc1", "experimental_target": "FOXC2-expressing HMLER cells", "recorded_endpoint": "pIC50", "value": "< 4.70"}
{"input_smiles": "Cc1cc(C(=O)N2CCN(c3ccccc3)CC2)ccc1-n1nnc2cccnc21", "experimental_target": "FOXC2-expressing HMLER cells", "recorded_endpoint": "pIC50", "value": "4.70 to 6.00"}
{"input_smiles": "Cc1c(C(=O)NCCCN2CCN(C3CCCCC3)CC2)cccc1-n1nnc2cccnc21", "experimental_target": "FOXC2-expressing HMLER cells", "recorded_endpoint": "pIC50", "value": "< 4.70"}
{"input_smiles": "Cc1c(C(=O)NCc2ccccc2)cccc1-n1nnc2cccnc21", "experimental_target": "FOXC2-expressing HMLER cells", "recorded_endpoint": "pIC50", "value": "< 4.70"}
{"input_smiles": "O=C(NC1CCN(Cc2ccccc2)CC1)c1cccc(-n2nnc3cccnc32)c1", "experimental_target": "FOXC2-expressing HMLER cells", "recorded_endpoint": "pIC50", "value": "< 4.70"}

Please report the measured pIC50 for CCN(Cc1ccccc1)C(=O)c1ccc(-n2nnc3cccnc32)cc1
< 4.70

Answer with the recorded pIC50 for the compound listed here: O=C(c1cccc(-n2nnc3cccnc32)c1)N1CCN(c2ccccc2)CC1
4.70 to 6.00

* * *

# Test system: FOXC2-expressing HMLER cells
# assay_notes: Cell Titer Glo viability of FOXC2-HMLER cells (high throughput screen and 10-point response)
# Assay type: cell-based
# condition: Homo sapiens; scored relative to parent compound 3; 72 hours; read-out: Activity Score, inhibition of FOXC2-expressing HMLER cells by Formula III compounds
// IC50 lookup, one value per entry

Example results:
{"molecule": "O=C(c1cccc(-n2nnc3cccnc32)c1)N1CCCC1 [Compound 3AV]", "IC50": "> 20 µM"}
{"molecule": "Cc1c(C(=O)NC2CCN(Cc3ccccc3)CC2)cccc1-n1nnc2cccnc21 [Compound 3BU]", "IC50": "> 20 µM"}
{"molecule": "Cc1ccc(C(=O)N2CCN(C3CCCCC3)CC2)cc1-n1nnc2cccnc21 [Compound 3BE]", "IC50": "> 20 µM"}
{"molecule": "Cc1cc(C(=O)N2CCC(Cc3ccccc3)CC2)ccc1-n1nnc2cccnc21 [Compound 3M]", "IC50": "1 to 20 µM"}

Give me measured IC50, please, for this molecule: Cc1ccc(C(=O)NC2CCN(Cc3ccccc3)CC2)cc1-n1nnc2cccnc21 [Compound 3BH]
> 20 µM

Give reported IC50 value for Cc1ccc(C(=O)N(C)Cc2ccccc2)cc1-n1nnc2cccnc21 [Compound 3BC]
> 20 µM

Look up and report measured IC50 for this entry: Cc1c(C(=O)NCCCN2CCCC(C)C2)cccc1-n1nnc2cccnc21 (centres unmarked) [Compound 3CB]
> 20 µM

Using the record for Cc1cc(C(=O)N2CCC(C)CC2)ccc1-n1nnc2cccnc21 [Compound 3AQ] , state its measured IC50.
> 20 µM

Give IC50 for Cc1c(C(=O)NCC(C)c2ccccc2)cccc1-n1nnc2cccnc21 (centres unmarked) [Compound 3BT]
> 20 µM

Provide measured IC50 value, entry: Cc1ccc(C(=O)NCCCN(C)Cc2ccccc2)cc1-n1nnc2cccnc21 [Compound 3BJ]
> 20 µM

Query IC50 for Cc1ccc(C(=O)N2CCN(c3ccc(F)cc3)CC2)cc1-n1nnc2cccnc21 [Compound 3AA]
1 to 20 µM

Please give the documented IC50 of Cc1ccc(Cl)cc1N1CCN(C(=O)c2ccc(-n3nnc4cccnc43)cc2)CC1 [Compound 3H]
1 to 20 µM

Look up and report measured IC50 for this entry: O=C(c1ccc(-n2nnc3cccnc32)cc1)N1CCC(Cc2ccccc2)CC1 [Compound 3AI]
1 to 20 µM

Give reported IC50 value for Cc1c(C(=O)N2CCC(Cc3ccccc3)CC2)cccc1-n1nnc2cccnc21 [Compound 3AF]
1 to 20 µM

Annotate the molecule Cc1cccc(N2CCN(C(=O)c3cccc(-n4nnc5cccnc54)c3C)CC2C)c1 (centres unmarked) [Compound 3] with its measured IC50.
< 1 µM

Specify IC50 for Cc1ccc(C(=O)N2CCN(c3ccccc3)CC2)cc1-n1nnc2cccnc21 [Compound 3V] and stop.
1 to 20 µM

Check the records and state IC50 for Cc1cccc(CNC(=O)c2ccc(C)c(-n3nnc4cccnc43)c2)c1 [Compound 3BF]
> 20 µM

Determine its reported IC50: O=C(c1cccc(-n2nnc3cccnc32)c1)N1CCN(c2cccc(Cl)c2)CC1 [Compound 3Q]
1 to 20 µM

Specify measured IC50 for Cc1c(C(=O)NCc2ccc(N(C)C)cc2)cccc1-n1nnc2cccnc21 [Compound 3CG] .
> 20 µM

// Input: O=C(c1ccc(-n2nnc3cccnc32)cc1)N1CCN(c2ccc(F)cc2)CC1 [Compound 3C] . Output its IC50 only.
< 1 µM

* * *

# Tested on: FOXC2-expressing HMLER cells
# assay_notes: Cell Titer Glo viability of FOXC2-HMLER cells (high throughput screen and 10-point response)
# Format: cell-based
# condition: Homo sapiens; scored relative to parent compound 3; 72 hours; read-out: Activity Score, inhibition of FOXC2-expressing HMLER cells by Formula III compounds
recorded_endpoint: IC50

Below: 7 compounds and their reported IC50.
{"compound": "COc1ccc(N2CCN(C(=O)c3ccc(-n4nnc5cccnc54)c(C)c3)CC2)cc1", "value": "> 20 µM"}
{"compound": "Cc1ccc(C)c(N2CCN(C(=O)c3ccc(-n4nnc5cccnc54)cc3)CC2)c1", "value": "1 to 20 µM"}
{"compound": "COc1cccc(N2CCN(C(=O)c3cccc(-n4nnc5cccnc54)c3C)CC2)c1", "value": "< 1 µM"}
{"compound": "Cc1c(C(=O)NCCC(C)N2CCCC2)cccc1-n1nnc2cccnc21 (centres unmarked)", "value": "> 20 µM"}
{"compound": "Cc1c(C(=O)N2CCN(c3ccccc3)CC2)cccc1-n1nnc2cccnc21", "value": "1 to 20 µM"}
{"compound": "Cc1c(C(=O)NC(C)C(=O)N2CCCCC2)cccc1-n1nnc2cccnc21 (centres unmarked)", "value": "> 20 µM"}
{"compound": "Cc1c(C(=O)NCCN2CCCC2)cccc1-n1nnc2cccnc21", "value": "> 20 µM"}

Now look at this entry.
State measured IC50 of the compound COc1cccc(N2CCN(C(=O)c3ccc(C)c(-n4nnc5cccnc54)c3)CC2)c1 with FOXC2-expressing HMLER cells.
1 to 20 µM
